// data source = patent US20260125378A2

Molecular target: Full length DGKζ (in-house protein M1-V929) (Homo sapiens)
Construct: His (N); TEV site (N)
Sequence (Q13574 1-929 isoform Q13574-4): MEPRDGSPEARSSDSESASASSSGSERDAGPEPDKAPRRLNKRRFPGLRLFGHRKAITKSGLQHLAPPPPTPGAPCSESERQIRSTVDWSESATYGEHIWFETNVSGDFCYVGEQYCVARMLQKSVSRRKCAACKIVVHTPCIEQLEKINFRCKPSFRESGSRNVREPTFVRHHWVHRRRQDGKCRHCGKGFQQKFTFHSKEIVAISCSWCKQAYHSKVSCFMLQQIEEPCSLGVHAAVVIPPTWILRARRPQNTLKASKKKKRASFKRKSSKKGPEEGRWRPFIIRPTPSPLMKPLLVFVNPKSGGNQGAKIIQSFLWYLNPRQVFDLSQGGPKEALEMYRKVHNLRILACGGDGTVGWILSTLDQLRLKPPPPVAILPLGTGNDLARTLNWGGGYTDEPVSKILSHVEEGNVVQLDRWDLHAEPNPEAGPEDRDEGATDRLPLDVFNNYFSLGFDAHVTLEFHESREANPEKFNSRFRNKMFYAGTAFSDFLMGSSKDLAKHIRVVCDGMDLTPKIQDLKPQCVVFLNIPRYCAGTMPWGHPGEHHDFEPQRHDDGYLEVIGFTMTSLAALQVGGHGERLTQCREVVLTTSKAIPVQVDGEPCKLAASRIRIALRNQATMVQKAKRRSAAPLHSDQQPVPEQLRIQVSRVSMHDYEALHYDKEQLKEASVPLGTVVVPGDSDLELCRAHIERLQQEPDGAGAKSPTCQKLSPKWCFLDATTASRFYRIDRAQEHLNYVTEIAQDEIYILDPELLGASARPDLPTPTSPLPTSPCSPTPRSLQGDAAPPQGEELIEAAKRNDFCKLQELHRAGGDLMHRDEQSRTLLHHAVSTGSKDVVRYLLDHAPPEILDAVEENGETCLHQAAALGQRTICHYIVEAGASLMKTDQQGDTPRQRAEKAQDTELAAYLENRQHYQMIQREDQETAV
Test: Biochemical DGK IC50 assay (ADP-Glo, lipid micelle substrate), DGKζ
Conditions: 1 hour preincubation, 1 hour reaction, room temperature
quantity-measured: IC50 (nM)

Example cases with answers are listed next.
CCn1c(CC#N)nc2c(N3C[C@@H](C)N(C(C)c4cc(F)c5c(n4)OC(C)(C)CO5)C[C@@H]3C)nc(=O)n(C)c21 (single isomer, unassigned) [Compound A163a] ... 13
CCn1c(CC#N)nc2c(N3C[C@@H](C)N(C(C)c4ccc(C)cc4C(F)(F)F)C[C@@H]3C)nc(=O)n(C)c21 (single isomer, unassigned) [Compound A116a] ... 7760
CCn1c(CC#N)nc2c(N3C[C@@H](C)N(C(C)c4ccc(OC)c(C(C)(F)F)c4)C[C@@H]3C)nc(=O)n(C)c21 (stereo partly shown) [Compound A39] ... 211

[I] CCn1c(CC#N)nc2c(N3C[C@@H](C)N(C(C)c4ccc5c(c4Cl)OC(C)(C)O5)C[C@@H]3C)nc(=O)n(C)c21 (single isomer, unassigned) [Compound A172b]
[II] CC(c1ccc2c(c1)OC(C)(C)CO2)N1C[C@H](C)N(c2nc(=O)n(C)c3c2nc(CC#N)n3CC(F)F)C[C@H]1C (stereo partly shown) [Compound A87]
[III] CCn1c(CC#N)nc2c(N3C[C@@H](C)N(C(C)c4cccc(C5CC5)c4)C[C@@H]3C)nc(=O)n(C)c21 (stereo partly shown) [Compound A125]
Problem: Arrange by IC50, high to low. Returns: the labels listed in the requested order.
Result: III, I, II

[P] CCn1c(CC#N)nc2c(N3C[C@@H](C)N(C(C)c4cccc(C(F)(F)F)c4)C[C@@H]3C)nc(=O)n(C)c21 (single isomer, unassigned) [Compound A42b]
[Q] CCn1c(CC#N)nc2c(N3C[C@@H](C)N(C(C)c4ccc5c(c4)OC(C)(C)O5)C[C@@H]3C)nc(=O)n(C)c21 (mixture of isomers) [Compound A85]
[R] CCn1c(=O)nc(N2C[C@@H](C)N(C(C)c3ccc4c(c3)OC(C)(C)CO4)C[C@@H]2C)c2nc(CC#N)n(C)c21 (single isomer, unassigned) [Compound A61b]
Problem: rank_up(items): orders items by reported IC50 in ascending numerical order. Returns: the labels listed in the requested order.
Result: Q, P, R
(Q: 25 nM, P: 285 nM, R: 420 nM)
